Where do the numbers come from? From patent US20260132208A1.

- SYSTEM_NAME: human CCR8 (human, UniProt P51685 1-355)
- PROTOCOL: cell-based or functional assay
Entries whose residual hCCL1 (100 nM) Gi2 response, protocol #2, mAb 0.4 µg/mL is below 60% take 1; entries at or above 60% take 0.

binder="anti-CCR8 mAb 1-5 (antibody, V domains shown, Murine hybridoma mAb) VH: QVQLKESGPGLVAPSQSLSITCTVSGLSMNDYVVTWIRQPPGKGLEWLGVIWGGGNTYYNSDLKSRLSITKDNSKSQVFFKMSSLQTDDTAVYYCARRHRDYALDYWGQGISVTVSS VL: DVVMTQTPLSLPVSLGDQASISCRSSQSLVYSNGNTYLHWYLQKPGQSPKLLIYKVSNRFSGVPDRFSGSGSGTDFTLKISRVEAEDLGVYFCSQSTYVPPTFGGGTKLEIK" label=0
binder="anti-CCR8 mAb 1-9 (antibody, V domains shown, Murine hybridoma mAb) VH: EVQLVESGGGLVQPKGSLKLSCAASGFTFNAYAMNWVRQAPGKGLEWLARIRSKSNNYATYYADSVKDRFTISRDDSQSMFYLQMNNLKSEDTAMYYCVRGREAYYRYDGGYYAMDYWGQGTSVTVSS VL: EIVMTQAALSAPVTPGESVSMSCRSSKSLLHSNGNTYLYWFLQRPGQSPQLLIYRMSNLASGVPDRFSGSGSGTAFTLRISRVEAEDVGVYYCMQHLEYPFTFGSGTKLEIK" label=1
binder="anti-CCR8 mAb 1-2 (antibody, V domains shown, Murine hybridoma mAb) VH: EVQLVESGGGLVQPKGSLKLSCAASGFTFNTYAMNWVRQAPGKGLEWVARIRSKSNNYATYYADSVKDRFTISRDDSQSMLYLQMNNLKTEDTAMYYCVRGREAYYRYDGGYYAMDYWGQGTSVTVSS VL: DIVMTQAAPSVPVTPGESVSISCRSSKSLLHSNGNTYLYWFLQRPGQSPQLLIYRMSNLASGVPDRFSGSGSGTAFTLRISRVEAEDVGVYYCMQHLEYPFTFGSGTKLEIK" label=1
binder="anti-CCR8 mAb 1-6 (antibody, V domains shown, Murine hybridoma mAb) VH: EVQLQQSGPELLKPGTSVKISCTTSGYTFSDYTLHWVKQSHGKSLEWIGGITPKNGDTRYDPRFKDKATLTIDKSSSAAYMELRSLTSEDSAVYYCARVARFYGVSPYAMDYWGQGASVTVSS VL: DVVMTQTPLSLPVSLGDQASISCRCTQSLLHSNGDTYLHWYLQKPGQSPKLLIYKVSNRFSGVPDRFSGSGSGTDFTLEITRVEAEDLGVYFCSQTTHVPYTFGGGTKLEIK" label=1
binder="anti-CCR8 mAb 1-23 (antibody, human IgG1, kappa, V domains shown, Humanized mAb, human IgG1 / kappa) VH: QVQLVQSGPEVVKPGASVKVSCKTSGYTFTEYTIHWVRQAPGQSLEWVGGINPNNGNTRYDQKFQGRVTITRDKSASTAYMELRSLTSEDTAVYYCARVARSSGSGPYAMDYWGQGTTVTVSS VL: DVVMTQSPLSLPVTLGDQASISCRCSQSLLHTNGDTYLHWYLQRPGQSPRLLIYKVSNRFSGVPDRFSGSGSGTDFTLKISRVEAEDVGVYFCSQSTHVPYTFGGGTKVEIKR" label=1
